system: YANK3; construct: gene STK32C; conditions: concentration: 1 μM,replicates: in singlicate; n = 1;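 also: KINOMEscan kinase panel screen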
For each of the molecules below, state its %Inh.
Numbers only, in %.

Please review the entries below; each comes with its answer.
| STRUCTURE STRING | UNIT OF MEASURE | %Inh |
| --- | --- | --- |
| COc1cccc(OC)c1C(=O)Nc1cccc(-c2nn3ccccc3c2-c2ccnc(Nc3cccc(F)c3)n2)c1 | % | 0 |
| O=C(Nc1ccccc1)c1cccc(Oc2ccc3nccn3n2)c1 | % | 0 |
| COC(=O)c1cccc(NC(=O)NC2CCN(c3ccnc(NCc4ccc(F)cc4)n3)CC2)c1 | % | 0 |
| C[C@@H]1CNc2c(sc3ccc4nc(-c5ccncc5)ccc4c23)C(=O)N1 | % | 17 |
| CCn1c(-c2nonc2N)nc2cncc(Br)c21 | % | 8 |
| CS(=O)(=O)Nc1ccc(-c2ccnc3[nH]ccc23)cc1 | % | 20 |

Answer for every listed entry: what is its %Inh? The entries follow.
1. CN(c1cccc(CNc2nc(Nc3ccc4c(c3)CC(=O)N4)ncc2C(F)(F)F)c1)S(C)(=O)=O
2. O=C(NCC1CC1)c1ccc(-c2cc(C(=O)NC3CC3)ccc2F)cc1
3. FC(F)(F)c1cc(Br)cc(Nc2nccc(-c3cnn4ncccc34)n2)c1

Solution:
[0, 0, 25]
